System: OVCAR-4 ovarian
Test: NCI tumour cell line growth inhibition, 48 h
measured quantity: TGI

Worked examples, 2 molecules total:
INSERT INTO results (molecule, measured_quantity, measured_result) VALUES
  ('COc1ccc2c(OC)c3ccoc3nc2c1O', 'TGI', '> 100 µM'),
  ('CC[C@@]1(O)C(=O)NCc2c1cc1n(c2=O)Cc2cc3cc4c(cc3nc2-1)OCO4', 'TGI', '97.8 µM');

Working through the 3 molecules below one at a time, give TGI for each.
1. CCOP(=O)(CS(C)=O)O[C@@H]1C[C@H](C)CC[C@H]1C(C)C (stereo partly specified)
2. CNC(=O)c1cc(Oc2ccc3nc(NC(=O)Nc4ccc(Cl)c(Cl)c4)sc3c2)ccn1
3. Nc1cc(N)c2nc(-c3ccccc3)c(Nc3ccc(F)cc3)nc2c1

1: > 39.3 µM; 2: 4.03 µM; 3: 48.8 µM

Working through the 6 molecules below one at a time, give TGI for each.
1. COc1ncnc2c(NC3OC(CO)C(O)C3O)ncnc12 (stereo unspecified)
2. O=C(Oc1ccccc1)c1cc(O)c(O)c(O)c1
3. CCN=C1NN=C(c2ccccc2)c2cc(Cl)ccc2N1
4. N#C/C(=C\c1ccc(Cl)cc1)c1nc2ccccc2c(=O)[nH]1
5. O=C1N=C2c3c(sc4c3CCCC4)N=CN2C1N=Nc1ccc(Cl)cc1 (stereo unspecified)
6. COc1ccc(NC(=O)C2=C(SC)C(C#N)C(=O)N=C2N)cc1 (stereo unspecified)

["7.08 µM", "> 100 µM", "> 100 µM", "> 100 µM", "> 100 µM", "> 100 µM"]

====

Test system: OVCAR-5 ovarian
Assay: NCI tumour cell line growth inhibition, 48 h
Exercise: state measured TGI for each of the molecules provided.

INSERT INTO measurements (chemical_smiles, measured_quantity, measured_result) VALUES
  ('N#C/C(=C\c1cn(-c2ccccc2)c2ccccc12)C(=O)O', 'TGI', '> 100 µM'),
  ('O=C(Nc1ccccc1Cl)c1cnc2ccc(C3CCNCC3)cn12', 'TGI', '> 100 µM'),
  ('C[C@]12CC[C@H]3[C@@H](CC=C4C[C@@H](O)CC[C@@]43C)[C@@H]1C/C(=C\c1cccc(OCCN3CCOCC3)c1)[C@@H]2O', 'TGI', '> 100 µM'),
  ('COc1ccc2c(c1)[nH]c(=O)c1c3cccnc3cn21', 'TGI', '> 100 µM');

Then this molecule:
Given `COc1ccc(Cl)cc1N1C(=O)C(Cl)=C(Nc2cccc(O)c2)C1=O` , respond with its TGI.
94.4 µM

====

System: SR leukemia
Experiment: NCI tumour cell line growth inhibition, 48 h
measured quantity: TGI

INSERT INTO results (molecule, system_name, measured_quantity, measured_result) VALUES
  ('Cc1ccc2c(ccc3c[n+]4ccccc4c(C)c32)c1', 'SR leukemia', 'TGI', '46.3 µM'),
  ('O=C1/C(=C/c2cccc([N+](=O)[O-])c2)CCCc2ccccc21', 'SR leukemia', 'TGI', '11 µM'),
  ('CCOc1ccc(NCC(=O)N2CC(=O)Nc3ccccc32)cc1', 'SR leukemia', 'TGI', '> 100 µM'),
  ('Cc1ccc2sc3cc(=O)cc(C)c-3nc2c1', 'SR leukemia', 'TGI', '> 100 µM'),
  ('O=C(/C=C/c1ccc(O)c(O)c1)NC(CO)C(=O)O (centres undefined)', 'SR leukemia', 'TGI', '> 100 µM');

Working through the 3 molecules below one at a time, give TGI for each.
1. C[N+](C)(C)CC1Cc2ccccc2C1=O (centres undefined)
2. Cc1nc2ccccc2nc1NS(=O)(=O)c1ccc(N)cc1
3. COc1nccc(-c2c(-c3ccc(F)cc3)ncn2C2CCC(O)CC2)n1 (centres undefined)

1. 7.11 µM
2. > 100 µM
3. > 100 µM

Report value: TGI, system: SR leukemia, molecule: `COc1ccccc1NC(=O)CC(=O)n1nc(C)c(N=Nc2ccccc2F)c1C`
> 100 µM
